Assign Ki to each entry below.
- assayed_system: AEA membrane transporter (AMT)
- cond: read-out: Ki (inhibition of AMT)
Please don't drop the unit; write it after the number.

Q: Requested field: Ki. Item: NC(=O)CC[C@H](N)C(=O)O
Result: 1100 nM

Q: Please answer likewise for N[C@H](CCC(=O)O)C(=O)O [D-Glutamate]
Result: 1230 nM

Q: Now the compound NC(=O)CCC(N)C(=O)O (stereo in doubt)
Result: 525 nM

Q: Try this compound next: N[C@@H](CCC(=O)O)C(=O)O [L-Glutamate]
Result: 4000 nM

---

- System: AEA membrane transporter (AMT)
- Format: biochemical, human
test_readout: effect on accumulation of 200 nM [3H]AEA

compound="CCCCC/C=C\\C/C=C\\C/C=C\\C/C=C\\CCCC(=O)O [arachidonic acid]" test_readout="effect on accumulation of 200 nM [3H]AEA" observed_value=ineffective
compound="CCCCC/C=C\\C[C@@H](O)/C=C/C=C/C=C\\[C@@H](O)CCCC(=O)O [leukotriene B4]" test_readout="effect on accumulation of 200 nM [3H]AEA" observed_value="not affected"
compound="NCCO [ethanolamine]" test_readout="effect on accumulation of 200 nM [3H]AEA" observed_value=ineffective
compound="CCCCC[C@H](O)/C=C/[C@H]1[C@H](O)CC(=O)[C@@H]1C/C=C\\CCCC(=O)O [prostaglandin E2]" test_readout="effect on accumulation of 200 nM [3H]AEA" observed_value="not affected"

The measured values listed here are drawn from paper PMC139962.
